method: physchem
property_name: logP
# output: bare number, no unit

Noted for O=C1NCCS1 [2-oxo-1,3-thiazolidine] : its logP reads -0.27
